Listed below: IC50 at 72 h values for each entry.
Experiment: in vitro
Format: cell-based, human
Settings: human
Ends that are not written are not given here.
QUANTITY_KIND: IC50 at 72 h (mM)

         substance  reading
0    RRRFFF [R3F3]     4.31
1  RRRRFFFF [R4F4]     2.15

These entries and their values trace back to paper PMC7147261.
